- Tested on: T. pulmonis
- procedureDetails: Kirby-Bauer disk diffusion susceptibility test
- Format: cell-based, Tsukamurella pulmonis
- conditionsUsed: T. pulmonis strain 40, isolation year 2015
observable: Characteristics of strains: susceptibility or resistance

CO/N=C(\C(=O)N[C@@H]1C(=O)N2C(C(=O)O)=C(COC(C)=O)CS[C@H]12)c1csc(N)n1 [CTX, Cefotaxime]: R
C[C@@H](O)[C@H]1C(=O)N2C(C(=O)O)=C(SCCN=CN)C[C@H]12 [IMP, Imipenem]: S
CC[C@H]1OC(=O)[C@H](C)[C@@H](O[C@H]2C[C@@](C)(OC)[C@@H](O)[C@H](C)O2)[C@H](C)[C@@H](O[C@@H]2O[C@H](C)C[C@H](N(C)C)[C@H]2O)[C@](C)(O)C[C@@H](C)C(=O)[C@H](C)[C@@H](O)[C@]1(C)O [ERI, Erythromycin]: R
CC(=O)NC[C@H]1CN(c2ccc(N3CCOCC3)c(F)c2)C(=O)O1 [LIN, Linezolid]: R

For the compound NCC[C@H](O)C(=O)N[C@@H]1C[C@H](N)[C@@H](O[C@H]2O[C@H](CN)[C@@H](O)[C@H](O)[C@H]2O)[C@H](O)[C@H]1O[C@H]1O[C@H](CO)[C@@H](O)[C@H](N)[C@H]1O [AMK, Amikacin] , report Characteristics of strains: susceptibility or resistance.
R

---

- procedureDetails: Cellular viability, CellTiter Glo (Table V, cells not stated)
- Type: cell-based
- conditionsUsed: human; 0.39 μM; relative to DMSO control
observable: viability at 0.39 µM (%)
Please give a number only; it is taken to be in %.

For the molecule CCCCCC1=NN(C(=O)CCO)OC(CCCCC)C1 (stereo not shown) , report viability at 0.39 µM.
113

---

- Test system: HOS
- procedureDetails: MTT assay
- Format: cell-based
- conditionsUsed: Homo sapiens, 48 hours
observable: pIC50
Give only the number. pIC50 is defined as minus log10 of concentration in molar units.

State measured pIC50 of the molecule CCCCCC1=NN(C(=O)CCO)OC(CCCCC)C1 (stereo not shown) with HOS.
6.77

---

- Test system: HIV virus (NL4.3-Ren)
- procedureDetails: microbe, parasite or virus in culture
- Format: cell-based
- conditionsUsed: Human immunodeficiency virus 1, PBMC, read-out: IC50 nM
observable: IC50 (nM)
Please give a number only; it is taken to be in nM.

For the molecule CCCCCC1=NN(C(=O)CCO)OC(CCCCC)C1 (stereo not shown) [Compound] , report IC50.
362

---

- procedureDetails: Cellular viability, CellTiter Glo (Table V, cells not stated)
- Type: cell-based
- conditionsUsed: human; 50 μM; relative to DMSO control
observable: viability at 50 µM (%)
Please give a number only; it is taken to be in %.

For the compound CCCCCC1=NN(C(=O)CCO)OC(CCCCC)C1 (stereo not shown) , report viability at 50 µM.
2

---

- System: N. carnea
- procedureDetails: Kirby-Bauer disk diffusion susceptibility test
- Type: cell-based, Nocardia carnea
- conditionsUsed: N. carnea strain 769, isolation year 2009
observable: Characteristics of strains: susceptibility or resistance

Worked cases, answers included:
CC(=O)NC[C@H]1CN(c2ccc(N3CCOCC3)c(F)c2)C(=O)O1: S
C[C@@H](O)[C@H]1C(=O)N2C(C(=O)O)=C(SCCN=CN)C[C@H]12: S
NCC[C@H](O)C(=O)N[C@@H]1C[C@H](N)[C@@H](O[C@H]2O[C@H](CN)[C@@H](O)[C@H](O)[C@H]2O)[C@H](O)[C@H]1O[C@H]1O[C@H](CO)[C@@H](O)[C@H](N)[C@H]1O: S
CO/N=C(\C(=O)N[C@@H]1C(=O)N2C(C(=O)O)=C(COC(C)=O)CS[C@H]12)c1csc(N)n1: S

For the compound CC[C@H]1OC(=O)[C@H](C)[C@@H](O[C@H]2C[C@@](C)(OC)[C@@H](O)[C@H](C)O2)[C@H](C)[C@@H](O[C@@H]2O[C@H](C)C[C@H](N(C)C)[C@H]2O)[C@](C)(O)C[C@@H](C)C(=O)[C@H](C)[C@@H](O)[C@]1(C)O , report Characteristics of strains: susceptibility or resistance.
R

---

- procedureDetails: Cellular viability, CellTiter Glo (Table V, cells not stated)
- Assay type: cell-based
- conditionsUsed: human; 0.19 μM; relative to DMSO control
observable: viability at 0.19 µM (%)
Please give a number only; it is taken to be in %.

For the compound CCCCCC1=NN(C(=O)CCO)OC(CCCCC)C1 (stereo not shown) [Compound] , report viability at 0.19 µM.
114

---

- System: A. baumannii
- procedureDetails: Kirby-Bauer disk diffusion susceptibility test; further: key: I = intermediate activity; S = susceptibility; R = Resistance
- Format: cell-based, Acinetobacter baumannii
- conditionsUsed: A. baumannii strain 300, isolation year 2001
observable: Characteristics of strains: susceptibility or resistance

Worked cases, answers included:
C[C@@H](O)[C@H]1C(=O)N2C(C(=O)O)=C(S[C@@H]3CN[C@H](C(=O)N(C)C)C3)[C@H](C)[C@H]12: R
C[C@@H](O)[C@H]1C(=O)N2C(C(=O)O)=C(SCCN=CN)C[C@H]12: R
CO/N=C(\C(=O)N[C@@H]1C(=O)N2C(C(=O)O)=C(CSc3nc(=O)c(O)nn3C)CS[C@H]12)c1csc(N)n1: R
NCC[C@H](O)C(=O)N[C@@H]1C[C@H](N)[C@@H](O[C@H]2O[C@H](CN)[C@@H](O)[C@H](O)[C@H]2O)[C@H](O)[C@H]1O[C@H]1O[C@H](CO)[C@@H](O)[C@H](N)[C@H]1O: R

Now for another entry.
For the compound NC[C@H]1O[C@H](O[C@H]2[C@H](O)[C@@H](O[C@H]3O[C@H](CO)[C@@H](O)[C@H](N)[C@H]3O)[C@H](N)C[C@@H]2N)[C@H](N)C[C@@H]1O , report Characteristics of strains: susceptibility or resistance.
S

---

- procedureDetails: Cellular viability, CellTiter Glo
- Format: cell-based
- conditionsUsed: human, MT-2 cells; read-out: CC50 nM (concentration of drug required to kill 50% of cells)
observable: CC50

For the molecule CCCCCC1=NN(C(=O)CCO)OC(CCCCC)C1 (stereo not shown) , report CC50.
2500 to 5000 nM

---

- procedureDetails: Cellular viability, CellTiter Glo
- Type: cell-based
- conditionsUsed: human, PBMCs; read-out: CC50 nM (concentration of drug required to kill 50% of cells)
observable: CC50

For the compound CCCCCC1=NN(C(=O)CCO)OC(CCCCC)C1 (stereo not shown) [Compound] , report CC50.
2500 to 5000 nM

---

- procedureDetails: Cellular viability, CellTiter Glo (Table V, cells not stated)
- Assay type: cell-based
- conditionsUsed: human; 0.78 μM; relative to DMSO control
observable: viability at 0.78 µM

For the compound CCCCCC1=NN(C(=O)CCO)OC(CCCCC)C1 (stereo not shown) [Compound] , report viability at 0.78 µM.
109%
